Value source: the RNAGym collection of RNA variant scans (doi:10.1093/nar/gkz1192)

B1: CPEB3 Ribozyme (parent)
chain: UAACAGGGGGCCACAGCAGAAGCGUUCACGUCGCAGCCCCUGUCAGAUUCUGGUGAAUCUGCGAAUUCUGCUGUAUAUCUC

# Variants of: B1
# protocol: self-cleavage, relative activity (ratio to wild type); higher = more cleavage; in vitro, sequencing
experimental_readout: self-cleavage

{"columns": ["mutant_name", "experimental_readout", "reading"],
 "data": [
  ["G6A G7U", "self-cleavage", 0.07],
  ["C17G U48C", "self-cleavage", 0.2],
  ["A13U C27A", "self-cleavage", 0.17],
  ["A15U C23U", "self-cleavage", 0.23],
  ["C14U A28G", "self-cleavage", 0.76],
  ["G9C U72G", "self-cleavage", 0.09],
  ["A20G U69C", "self-cleavage", 0.5],
  ["A56G U78A", "self-cleavage", 0.91],
  ["G42C U49C", "self-cleavage", 0.1],
  ["C23U U66C", "self-cleavage", 0.15],
  ["A20U U48C", "self-cleavage", 0.29],
  ["U41C G63A", "self-cleavage", 0.89],
  ["G6A G33A", "self-cleavage", 0.29],
  ["C14U C17U", "self-cleavage", 0.87],
  ["C23G U60A", "self-cleavage", 0.19],
  ["C39G G70A", "self-cleavage", 0.15],
  ["G63A A75U", "self-cleavage", 0.84],
  ["A13C C38A", "self-cleavage", 0.33],
  ["A3U U60C", "self-cleavage", 0.59],
  ["U41C U49C", "self-cleavage", 0.5],
  ["A20U A64G", "self-cleavage", 0.35],
  ["G36A A77C", "self-cleavage", 0.48],
  ["C4G U51C", "self-cleavage", 1.12],
  ["G19C U25C", "self-cleavage", 0.06],
  ["C37G A64U", "self-cleavage", 0.22],
  ["G36A U69C", "self-cleavage", 0.27],
  ["G9C A35G", "self-cleavage", 0.27],
  ["G30A G46A", "self-cleavage", 0.15],
  ["C62A U76C", "self-cleavage", 0.17],
  ["C62G U80A", "self-cleavage", 0.25],
  ["C11U G63A", "self-cleavage", 0.24],
  ["A2G U74C", "self-cleavage", 1.12],
  ["A18U U74C", "self-cleavage", 0.61],
  ["U1C C68A", "self-cleavage", 0.37],
  ["C23G A77C", "self-cleavage", 0.27],
  ["G33C A65C", "self-cleavage", 0.1],
  ["C68U", "self-cleavage", 1.06],
  ["U54G C79A", "self-cleavage", 1.18],
  ["G10A U60A", "self-cleavage", 0.14],
  ["U41G A65G", "self-cleavage", 0.35],
  ["C11A C81U", "self-cleavage", 0.52],
  ["U25G U60A", "self-cleavage", 0.19],
  ["C4U A13C", "self-cleavage", 1.21],
  ["U26A A64G", "self-cleavage", 0.61],
  ["A15U U54G", "self-cleavage", 0.59],
  ["G10U G33U", "self-cleavage", 0.1],
  ["C17A A57G", "self-cleavage", 0.34],
  ["U1G C38A", "self-cleavage", 0.48],
  ["U1C G16A", "self-cleavage", 0.08],
  ["U31G U72C", "self-cleavage", 0.82],
  ["C32U U60G", "self-cleavage", 0.4],
  ["U26A C81G", "self-cleavage", 1.1],
  ["A5G C62A", "self-cleavage", 0.22],
  ["G8A A35U", "self-cleavage", 0.14],
  ["A2U U49A", "self-cleavage", 0.72],
  ["A65C", "self-cleavage", 0.29],
  ["A35G C50A", "self-cleavage", 1.1],
  ["A15U C34A", "self-cleavage", 0.37],
  ["G24A A57C", "self-cleavage", 0.15],
  ["C71U U80C", "self-cleavage", 1.23],
  ["C11A A21G", "self-cleavage", 0.24],
  ["G53C U67C", "self-cleavage", 0.17],
  ["G10U A64G", "self-cleavage", 0.07],
  ["A28G A56C", "self-cleavage", 0.31],
  ["U25C U76A", "self-cleavage", 0.33],
  ["C11U A65G", "self-cleavage", 0.2],
  ["G33U G36U", "self-cleavage", 0.13],
  ["A3C A15G", "self-cleavage", 1.03],
  ["A28U G63A", "self-cleavage", 0.62],
  ["G16U G61A", "self-cleavage", 0.18],
  ["U43C G53U", "self-cleavage", 0.6],
  ["A15C U41A", "self-cleavage", 0.22],
  ["U58C U67A", "self-cleavage", 0.28],
  ["C34A C44U", "self-cleavage", 0.08],
  ["C14A A18U", "self-cleavage", 0.49],
  ["U66C U69C", "self-cleavage", 0.34],
  ["A28U U31C", "self-cleavage", 0.53],
  ["U48G U78C", "self-cleavage", 0.59],
  ["A3C U54C", "self-cleavage", 1.17],
  ["A28G U74A", "self-cleavage", 1.06],
  ["A18U A20U", "self-cleavage", 0.25],
  ["A13U C32G", "self-cleavage", 0.45],
  ["U58G U78C", "self-cleavage", 0.34],
  ["A13C A47G", "self-cleavage", 1.05],
  ["U67C A77G", "self-cleavage", 0.3],
  ["C11U G52A", "self-cleavage", 0.62],
  ["A3C A5C", "self-cleavage", 1.23],
  ["A18G U43A", "self-cleavage", 0.72],
  ["C37A U43A", "self-cleavage", 0.14],
  ["C50A G73A", "self-cleavage", 1.24],
  ["G70A U78G", "self-cleavage", 0.46]
]}
